Quick reference for activity among some molecules
assay_system: Nicotinamide N-methyltransferase (Homo sapiens)
measurement_protocol: Confirmatory Screen for Target Class Profiling of Small Molecule Inhibitors of Methyltransferases (AID 1745852)
test_context: MTase-Glo luminescence, SAH detection, recombinant enzyme; measured here: NNMT max response; stronger effect = lower value
quantity_measured: activity (%)

molecule: CC12CCC3C1C(c1c(cc(O)c(C(=O)c4ccccc4)c1O)O2)C3(C)C (stereo not given)
reading_unit: %
result_value: -25.6
//
molecule: COc1ccc(N(C(=O)Nc2c(C)cccc2C)c2cc(Nc3ccc(N4CCN(C)CC4)cc3)ncn2)c(OC)c1
reading_unit: %
result_value: -36.9
//
molecule: CC(C)C[C@H](CO)Nc1nc(S[C@@H](C)c2ccccc2)nc2nc(N)sc12
reading_unit: %
result_value: -40.8
//
molecule: CS(=O)(=O)Nc1ccc2oc3c(OC(F)F)ccc(C(=O)Nc4c(Cl)cncc4Cl)c3c2c1
reading_unit: %
result_value: -19.3
//
molecule: Cc1cc(NC(=O)NCCN2CCC(O)(Cc3ccccc3)CC2)c2ccccc2n1
reading_unit: %
result_value: 2.4

###

assay_system: Glutathione peroxidase 1 (Homo sapiens)
measurement_protocol: Primary qHTS Assay for Inhibitors of Recombinant Selenoprotein Glutathione Peroxidase 1 (GPX1) (AID 1845191); further: nearly all actives have a fitted effect of over 65% in size
test_context: recombinant GPX1, GR-coupled NADPH fluorescence, 15 min; series mostly up to 48.8 µM
Inconclusive results are not listed. Activity calls are given as the source filed them. Calls come from the whole dose curve; as a rule, active = well fitted inhibition curve with a large enough effect; inconclusive = small, poorly fitted or top-dose-only effect; inactive = flat fitted curve, though single readings scatter.

compound: CC(C)C[C@H](CO)Nc1nc(S[C@@H](C)c2ccccc2)nc2nc(N)sc12
outcome: inactive
//
compound: Cn1c(=O)c2c(ncn2Cc2ccc(C(C)(C)C)cc2)n(C)c1=O
outcome: inactive
//
compound: CN1CCN(C2=Nc3ccccc3Nc3ccc(OS(=O)(=O)C(F)(F)F)cc32)CC1
outcome: inactive
//
compound: Cc1c(C2=CCN(C(=O)N(C)C(C)C)CC2)nnn1-c1cccnc1F
outcome: inactive
//
compound: CC(O)C(C)n1ncn(-c2ccc(N3CCN(c4ccc(OCC5COC(Cn6cncn6)(c6ccc(Cl)cc6Cl)O5)cc4)CC3)cc2)c1=O (centres undefined)
outcome: inactive
//
compound: COc1cc(/C=C/C(=O)NCCn2c(C(F)(F)F)cc3ccccc32)cc(OC)c1OC
outcome: inactive
//
compound: Cc1ccc(C(=O)Nc2ccc(CN3CCN(C)CC3)c(C(F)(F)F)c2)cc1C#Cc1cnc2[nH]ncc2c1
outcome: inactive
//
compound: Cc1ccc(NC(=O)c2ccc(CN3CCNCC3)cc2)cc1Nc1nccc(-c2cccnc2)n1
outcome: inactive
//
compound: CC#C[C@@H](CC(=O)O)c1ccc(OCc2cccc(-c3ccc(C(F)(F)F)cc3)c2)cc1
outcome: inactive

###

System: KB-3-1
measurement_protocol: Cytotoxic Profiling of Annotated Libraries Using Quantitative High-Throughput Screening (AID 1296008); further: nearly all actives have a fitted effect of over 60% in size; further: potency means the concentration at half of the fitted maximal effect
test_context: Five cell lines viability, CellTiter-Glo ATP luminescence, 48-72 h
Results filed as inconclusive are left out. Calls of active or inactive are those of the source. Calls come from the whole dose curve; as a rule, active = well fitted inhibition curve with a large enough effect; inconclusive = small, poorly fitted or top-dose-only effect; inactive = flat fitted curve, though single readings scatter.

molecule: CC(=O)C=C=C1C(C)(C)CC(O)CC1(C)O[C@@H]1O[C@H](CO[C@H]2OC[C@](O)(CO)[C@H]2O)[C@@H](O)[C@H](O)[C@H]1O (some centres not stated)
Potency: inactive

molecule: CCn1c(=O)c(-c2ccc(-c3cncs3)cc2Cl)cc2cnc(Nc3ccc(N4CCN(C)CC4)cc3)nc21
Potency: 10.3 µM (active)

molecule: Cc1c(F)ccc(C(=O)Nc2cc([N+](=O)[O-])ccc2N2CCN(C)CC2)c1Cl
Potency: inactive

molecule: C/C=C(/C=C(C)/C=C/C=C/C=C(\C)C(=O)C12OC1C(O)(CCO)NC2=O)C(=O)OC (configuration not stated)
Potency: inactive

molecule: C=C[C@]1(C)C[C@H](O)[C@H]2C(=C)C(=O)O[C@@H]2[C@H]1C(=C)CO
Potency: inactive

molecule: CCOc1ccc(-n2c(C(C)N(Cc3cccnc3)C(=O)Cc3ccc(F)c(C(F)(F)F)c3)nc3ncccc3c2=O)cc1 (configuration not stated)
Potency: inactive

molecule: C=C1C(=O)O[C@@H]2[C@H]1CCC(C)=C(CCC(=O)O)[C@@]2(C)O
Potency: inactive

molecule: O=C([C@@H](Cc1cccc(C(F)(F)F)c1)NS(=O)(=O)c1cc(F)c2c(c1)CCNC2)N1CCCC1
Potency: inactive

molecule: C=C1[C@@H](OC(C)=O)CC[C@@]2(C)[C@@H](OC(C)=O)[C@H](OC(C)=O)C3=C(C)C[C@H](OC(=O)C(C)CC)[C@@H]([C@@H](OC(C)=O)[C@H]12)C3(C)C (some centres not stated)
Potency: 2.43 µM (active)

molecule: CC(=O)O[C@@H]1CC2C(C)(C)C(=O)C=C[C@]2(C)C2CC[C@@]3(C)[C@H](c4ccoc4)OC(=O)[C@H]4O[C@]43[C@@]21C (some centres not stated)
Potency: inactive

molecule: CC(C)c1cccc(C(C)C)c1NC(=O)Nc1ccc(Sc2ccc([N+](=O)[O-])cc2)cc1
Potency: 10.3 µM (active)

molecule: C/C=C1\NC(=O)[C@H]2CSSCC/C=C/[C@H](CC(=O)N[C@H](C(C)C)C(=O)N2)OC(=O)C(C(C)C)NC1=O (some centres not stated)
Potency: 0.0092 µM (active)

molecule: Cc1[nH]c2ccccc2c1CCNC(=O)c1cccs1
Potency: inactive

molecule: COC(CCc1ccc(O)cc1)CC(=O)CCc1ccc(O)cc1 (configuration not stated)
Potency: inactive

molecule: C=C1C(=O)O[C@@H]2/C=C(\C)CC/C=C(/C=O)[C@H](OC)[C@@H](OC(=O)C(C)C)[C@@H]12
Potency: inactive

molecule: CN(C)CCN(Cc1ccc(-c2ccc(CNCCc3ccccc3)cc2)cc1)C(=O)CCC1CCCC1
Potency: 4.61 µM (active)

molecule: CCNC(=O)C#Cc1ccc2c(C(=Nc3ccc(CN(C)C)cc3)c3ccccc3)c(O)[nH]c2c1
Potency: 0.0282 µM (active)
